Exercise: state measured logD for each of the molecules provided.
- assay_notes: Lipophilicity, log D of the compound by HPLC analysis
- Assay type: physicochemical

Reported logD for CCn1c(-c2cnc(C)nc2)nc2c(O[C@H]3CCN(C(=O)[C@H]4C[C@@H](OC)C4)C3)ncnc21 : what is it?
1

Reported logD for CCn1c(-c2cnc(C)nc2)nc2c(O[C@H]3CCN(C(=O)C4CCC4)C3)ncnc21 : what is it?
1.3

Reported logD for CCn1c(-c2ccc(C(F)(F)F)nc2)nc2c(O[C@H]3CCN(C(=O)C4CCOC4)C3)ncnc21 (stereo not given in full) : what is it?
1.9

Reported logD for CCC(=O)N1CC[C@H](Nc2ncnc3c2nc(-c2cnc(C)nc2)n3CC)C1 : what is it?
0.7

Reported logD for CCn1c(-c2cnc(C)nc2)nc2c(O[C@H]3CCN(C(=O)C4CCOC4)C3)ncnc21 (stereo not given in full) : what is it?
0.7
